target: Plasminogen activator inhibitor 1 (Homo sapiens, UniProt P05121); assay: Inhibitory activity against human plasminogen activator inhibitor-1 (PAI-1) evaluated by chromogenic assay.
Sequence (P05121 whole entry): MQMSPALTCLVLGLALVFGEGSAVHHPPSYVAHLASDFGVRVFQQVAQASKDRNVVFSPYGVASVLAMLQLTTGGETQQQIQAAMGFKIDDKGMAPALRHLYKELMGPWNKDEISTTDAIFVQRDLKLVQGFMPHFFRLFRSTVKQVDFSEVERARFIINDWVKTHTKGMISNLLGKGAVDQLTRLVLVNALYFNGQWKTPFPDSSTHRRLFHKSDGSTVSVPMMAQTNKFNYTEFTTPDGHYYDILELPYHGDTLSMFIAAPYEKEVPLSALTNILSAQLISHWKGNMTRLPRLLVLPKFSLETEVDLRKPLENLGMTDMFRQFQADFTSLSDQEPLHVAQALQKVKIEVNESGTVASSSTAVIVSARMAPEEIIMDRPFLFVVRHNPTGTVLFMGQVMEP
pIC50: −log10 of the molar value.
Catalogue of compounds with associated pIC50

Sample records with pIC50:
smiles.record | readout.value
O=C(O)CCCCCCCOc1ccc(NC(=O)C2=C(O)CN(c3cccc4ccccc34)C2=O)cc1 | < 4.30
Cc1ccc(N2CC(O)=C(C(=O)Nc3ccc(OCCCCCCCC(=O)O)cc3)C2=O)cc1 | 5.71

Could you now consider this next compound?
Please report pIC50 with Plasminogen activator inhibitor 1 (Homo sapiens, UniProt P05121) for item COC(=O)CCCCCCCOc1ccc(NC(=O)C2=C(O)CN(c3ccc(Cl)cc3)C2=O)cc1 .
< 4.30

* * *

target: Plasminogen activator inhibitor 1 (Homo sapiens); assay: Inhibitory activity against human plasminogen activator inhibitor-1 (PAI-1) evaluated by complex assay.
Catalogue of molecules with associated IC50
The answer is to be given in nM; state only the numeric part.

smiles.record | recorded.metric | unit.text | readout.value
O=C(Nc1ccc(OCCCCCCCn2cnnn2)cc1)c1c(O)c2cc(-c3cc4ccccc4s3)ccc2[nH]c1=O | IC50 | nM | 290
O=C(O)CCCCCCCOc1ccc(/C=c2/[nH]c(=O)/c(=C/c3ccc(NC(=O)c4cccs4)cc3)[nH]c2=O)cc1 | IC50 | nM | 510
O=C(O)CCCCCCCOc1ccc(NC(=O)c2c(O)nc3ccc(-c4csc5ccccc45)cc3c2O)cc1 | IC50 | nM | 940
O=C(Nc1ccc(OCCCCCCCn2cnnn2)cc1)C1=C(O)CN(c2ccc(Cl)cc2)C1=O | IC50 | nM | 300

Could you now consider this next molecule?
Specify IC50 for Cc1ccc(N2CC(O)=C(C(=O)Nc3ccc(OCCCCCCCn4cnnn4)cc3)C2=O)cc1 and stop.
830

* * *

target: Plasminogen activator inhibitor 1 (Homo sapiens, UniProt P05121); assay: Inhibitory activity against human plasminogen activator inhibitor-1 (PAI-1) evaluated by chromogenic assay.
Catalogue of compounds with associated pIC50
The scale used: pIC50 is minus the common logarithm of the concentration in molar units.

Sample records with pIC50:
compound | pIC50
O=C(O)CCCCCCCOc1ccc(NC(=O)C2=C(O)CN(c3ccc([N+](=O)[O-])cc3)C2=O)cc1 | 5.37
O=C(O)CCCCCCCOc1ccc(NC(=O)C2=C(O)C(c3ccccc3)NC2=O)cc1 (stereo not given) | 4.31
COc1ccc(N2CC(O)=C(C(=O)Nc3ccc(OCCCCCCCC(=O)O)cc3)C2=O)cc1 | 5.44
O=C(O)CCCCCCCOc1ccc(NC(=O)C2=C(O)CN(c3ccccc3)C2=O)cc1 | 4.68

Specify pIC50 for COc1cc2[nH]c(=O)c(C(=O)Nc3ccc(OCCCCCCCC(=O)O)cc3)c(O)c2cc1OC and stop.
5.78

* * *

Catalogue of compounds with associated pIC50
molecular target: Plasminogen activator inhibitor 1 (Homo sapiens, UniProt P05121); experiment: Inhibitory activity against human plasminogen activator inhibitor-1 (PAI-1) evaluated by chromogenic assay.
The scale used: pIC50 is minus the common logarithm of the concentration in molar units.

smiles.record | readout.value
Cc1ccc(N2CC(O)=C(C(=O)Nc3ccc(OCCCCCCCn4cnnn4)cc3)C2=O)cc1 | 6.05
O=C(O)CCCCCCCOc1ccc(NC(=O)c2c(O)nc3ccc(I)cc3c2O)cc1 | 5.66
CCCCCc1ccc2[nH]c(=O)c(C(=O)Nc3ccc(OCCCCCCCC(=O)O)cc3)c(O)c2c1 | 5.74

Please report pIC50 with Plasminogen activator inhibitor 1 (Homo sapiens, UniProt P05121) for item O=C(O)CCCCCCCOc1ccc(NC(=O)c2c(O)nc3ccc([N+](=O)[O-])cc3c2O)cc1 .
5.44

Please report pIC50 with Plasminogen activator inhibitor 1 (Homo sapiens, UniProt P05121) for item O=C(Nc1ccc(OCCCCCCCn2cnnn2)cc1)C1=C(O)CN(c2ccc(Cl)cc2)C1=O .
6.16

Please report pIC50 with Plasminogen activator inhibitor 1 (Homo sapiens, UniProt P05121) for item O=C(Nc1ccc(OCCCCCCCn2cnnn2)cc1)c1c(O)c2cc(-c3cc4ccccc4s3)ccc2[nH]c1=O .
6.00

* * *

Catalogue of compounds with associated IC50
molecular target: Plasminogen activator inhibitor 1 (Homo sapiens, UniProt P05121); test: Inhibitory activity against human plasminogen activator inhibitor-1 (PAI-1) evaluated by chromogenic assay.

Sample records with IC50:
compound | test.system | readout.value
CC1C(O)=C(C(=O)Nc2ccc(OCCCCCCCC(=O)O)cc2)C(=O)N1c1ccccc1 (stereo not given) | Plasminogen activator inhibitor 1 (Homo sapiens, UniProt P05121) | > 50 µM
CC(=O)Nc1ccc(N2CC(O)=C(C(=O)Nc3ccc(OCCCCCCCC(=O)O)cc3)C2=O)cc1 | Plasminogen activator inhibitor 1 (Homo sapiens, UniProt P05121) | > 50 µM
COc1ccccc1N1CC(O)=C(C(=O)Nc2ccc(OCCCCCCCC(=O)O)cc2)C1=O | Plasminogen activator inhibitor 1 (Homo sapiens, UniProt P05121) | > 50 µM
O=C(O)CCCCCCCOc1ccc(NC(=O)C2=C(O)CN(c3ccc(N4CCOCC4)cc3)C2=O)cc1 | Plasminogen activator inhibitor 1 (Homo sapiens, UniProt P05121) | > 50 µM

Could you now consider this next compound?
Specify IC50 for Nc1ccc2nc(O)c(C(=O)Nc3ccc(OCCCCCCCC(=O)O)cc3)c(O)c2c1 and stop.
> 20 µM
